# assay_target: human CMKLR1 (Homo sapiens)
# Construct: host or cells: HEK293A (Invitrogen), stably expressing human Gα15
# Sequence (Q99788 whole entry): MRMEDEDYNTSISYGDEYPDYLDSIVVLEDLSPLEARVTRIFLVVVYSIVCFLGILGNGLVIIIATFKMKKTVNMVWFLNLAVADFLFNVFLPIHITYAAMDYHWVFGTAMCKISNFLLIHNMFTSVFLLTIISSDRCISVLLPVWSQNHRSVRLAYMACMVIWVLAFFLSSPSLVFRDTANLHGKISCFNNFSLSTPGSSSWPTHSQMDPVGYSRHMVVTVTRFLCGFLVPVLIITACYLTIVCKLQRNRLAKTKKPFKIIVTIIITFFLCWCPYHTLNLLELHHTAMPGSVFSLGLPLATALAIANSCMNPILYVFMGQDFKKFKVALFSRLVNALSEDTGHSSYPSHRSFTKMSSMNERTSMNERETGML
# experiment: Ca2+ mobilization (CellLux imaging) agonist assay in HEK293A cells expressing CMKLR1 and Gα15
# Format: cell-based
# test_conditions: Ca2+ mobilization, CMKLR1; decimal comma
Ends that are not written are not given here.
Reported max response by item:
test_readout: max response

>>> measured("YPPGQYAFF-OH [compound 68]")
"0,94 DF/F0"
>>> measured("YYPGQYAYS-NH2 [compound 17]")
"1,09 DF/F0"
>>> measured("PLPGQFQFK-OH [compound 70]")
"0,43 DF/F0"

Origin of measurements: paper PMC3351444
